biological target: T1, human Amyloid beta 1-42 peptide (Homo sapiens, UniProt P05067); test: Surface Plasmon Resonance kinetic profiling of purified scFv (ProteOn); assay type: binding; conditions: biotinylated human Amyloid beta 1-42 on streptavidin chip
T1 construct: biotinylated human Amyloid beta 1-42 peptide (rpeptide, USA; cat: A1117); purchased rPeptide, USA A1117; host or cells: synthetic peptide
T1 sequence (P05067 672-713): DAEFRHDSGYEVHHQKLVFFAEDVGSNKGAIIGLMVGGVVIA
Measured quantity: kd (s⁻¹)
Give the value, in units of s⁻¹, as a plain number.

stdin: // returns reported kd for input Abet0383: optimized anti-Aβ1-42 clone derived from Abet0144-GL (protein, left off: small tags and cut ends, optimized anti-Aβ1-42 clone derived from Abet0144-GL) scFv (part 1 of 2): EVQLLESGGGLVQPGGSLKLSCAASGFTFDWYPMWWVRQAPGKRLEWISVIGADNAKIAYADSVKGRFTISRDNSKNTLYLQMNSLRAEDTAVYYCAREWMGHSRPYYYYGMDVWGQGTPVTVSS scFv (part 2 of 2): SYELTQPPSVSVSPGQTASITCSGHNLGDKFASWYQQKPGQSPVLVIYRDDKRPSGIPERFSASNSGHTATLTISGTQATDEADYYCSSQDTVTRVFGGGTKLTVL
stdout: 3.94e-05

stdin: // returns reported kd for input Abet0381: optimized anti-Aβ1-42 clone derived from Abet0144-GL (protein, left off: small tags and cut ends, optimized anti-Aβ1-42 clone derived from Abet0144-GL) scFv (part 1 of 2): EVQLLESGGGLVQPGGSLRLSCAASSPSFPRETMWWVRQAPGKGLEWVSVIGTQPNRLTYADSVKGRFTISRDNSKNTLYLQMNSLRAEDTAVYYCAREWMDHSRPYYYYGIDVWGQGTLVTVSP scFv (part 2 of 2): SYELTQPPSVSASPGQTASITCSGHNLEDKFVSWYQQKPGQSPVLVIYRDDKRPSGIPERFSASNSGHTATLTISGTQATDEANYYCSSQDTVTRAFGGGTKLTVL
stdout: 5.14e-05

stdin: // returns reported kd for input Abet0371: optimized anti-Aβ1-42 clone derived from Abet0144-GL (protein, left off: small tags and cut ends, optimized anti-Aβ1-42 clone derived from Abet0144-GL) scFv (part 1 of 2): EVQLSESGGGLVQPGGSLRLSCAASHDAFPFDTMWWVRQAPGKGLEWVSVIGSSGGTTVYADSVKGRFTVSRDNSKNTLYLQMNSLRAEDTAVYYCAREWMDHSRPYYYYGMDVWGQGTLVTVSS scFv (part 2 of 2): SYELTQPPSVSVSPGQTASITCSGHNISSSWVSWYQQKPGQSPVLVIYRDDKRPSGIPERFSASNSGHTATLTISGTQATDEADYYCSSQDTVTRVFGGGTKLTVL
stdout: 0.000272

***
stdin: // returns reported kd for input Abet0328: optimized anti-Aβ1-42 clone derived from Abet0144-GL (protein, left off: small tags and cut ends, optimized anti-Aβ1-42 clone derived from Abet0144-GL) scFv (part 1 of 2): EVQLLESGGGLVQPGGSLRLSCAASRDPFKADTMWWVRQAPRKRLEWVSVIGAHTTNSAYADSVKGRFTISRDNSKNTLYLQMNSLRAEDTAVYYCAREWMDRSRPYYYYGMDVWGQGTLVTVSS scFv (part 2 of 2): SYELTQPPSVSVSPGQTVSITCSGRNLEDKFASWYQQKPGQSPVLVIYRDDKRPSGVPERFSASNSGHTATLTISGTQATDEADYYCSSQDTVTRVFGGGTKLTVL
stdout: 0.000103
